Data origin: BigSolDB 2.1

conditions: in methanol, 303.15 K

COMPOUND_SMILES | solubility (mole fraction)
COc1ccc(Cl)cc1C(=O)NCCc1ccc(S(=O)(=O)NC(=O)NC2CCCCC2)cc1 | 0.000355

---

details: in isopropanol, 283.15 K

COMPOUND_SMILES | solubility (mole fraction)
COc1ccc(Cl)cc1C(=O)NCCc1ccc(S(=O)(=O)NC(=O)NC2CCCCC2)cc1 | 7.55e-05

---

conditions: in MIBK, 303.15 K
OBSERVABLE: solubility (mole fraction)

COMPOUND_SMILES | QUANTITATIVE_READOUT
COc1ccc(Cl)cc1C(=O)NCCc1ccc(S(=O)(=O)NC(=O)NC2CCCCC2)cc1 | 0.000426
